These measurements were taken from patent US20250011363A1.

Quick reference for Binding affinity (RU) among some binders
# tested-system: acetylcholine receptor
# procedure-summary: SPR, AchR immobilised, peptide 10 uM
Respond numerically; units are RU and should not be typed.

-- ask What does the record list as Binding affinity (RU) for KKPSKR [6mer-1-659] ?
-- reply 29

-- ask Param item = KKCPNR [6mer-1-622] ; retrieve measured Binding affinity (RU).
-- reply 18

-- ask I am curious: what Binding affinity (RU) value has been reported for RRCTAR [6mer-1-1105] ?
-- reply 40

-- ask Fill blank: measured Binding affinity (RU) of the binder RRTWWR [6mer-1-627] is ____.
-- reply 29

-- ask Query (binder): RRDNVK [6mer-1-1123] ; field requested: Binding affinity (RU)
-- reply 41

-- ask Can you share its Binding affinity (RU)? I mean this binder: KKHNMR [6mer-1-1080]
-- reply 38

-- ask Fill in the blank: the reported Binding affinity (RU) of KKDTIK [6mer-1-1118] is ____.
-- reply 33

-- ask Entry under review: RRKHWK [6mer-1-1067] . Reported Binding affinity (RU)?
-- reply 38
